Where do the numbers come from? From patent US20100324067A1.

System: HIV-1
Experiment: Inhibitory activity against HIV-1 (literature method, Chen et al. J Virol 1997)
Conditions: value in brackets after EC50
measure: Therapeutic index (TI) = 50% cytotoxicity doses/50% effective dose

Below, each entry is followed by its recorded Therapeutic index (TI) = 50% cytotoxicity doses/50% effective dose result.
- compound: "CCCc1c(Cl)c(=O)oc2c3c(c4c(c12)OC(C)(C)C=C4)OC(C)CC3=O (stereo not drawn)"
  result: "243-730"
- compound: "CCCc1cc(=O)oc2c3c(c4c(c12)OC(C)(C)C=C4)OC1CC1C3=O (stereo not drawn)"
  result: "709-2127"
- compound: "CCc1cc(=O)oc2c3c(c4c(c12)OC(C)(C)C=C4)OC(C)CC3=O (stereo not drawn)"
  result: "> 1000"

List Therapeutic index (TI) = 50% cytotoxicity doses/50% effective dose for every entry below, keeping the order given.
1. CCCc1cc(=O)oc2c3c(c4c(c12)OC(C)(C)C=C4)OC(CBr)CC3=O (stereo not drawn)
2. CCCc1cc(=O)oc2c3c(c4c(c12)OC(C)(C)C=C4)OC(C)(C)CC3=O
3. CCCc1cc(=O)oc2c3c(c4c(c12)OC(C)(C)C=C4)OC(CCC)CC3=O (stereo not drawn)

Response:
1: > 10526; 2: 47-140; 3: 102-308

---

Could you please report measured melting point for the items listed next?

- molecule: "CCCc1cc(=O)oc2c(-c3cccn3Cc3ccco3)c(O)c3c(c12)OC(C)(C)C=C3"
  melting point: "157 to 159 °C"
- molecule: "CC1CC(=O)c2c(c3c(c4c(CCl)cc(=O)oc24)OC(C)(C)C=C3)O1 (stereo not drawn)"
  melting point: "132 to 134 °C"
- molecule: "CCCc1cc(=O)oc2c3c(c4c(c12)OC(C)(C)C=C4)OC(CN1CCCCC1)CC3=O (stereo not drawn)"
  melting point: "154 to 155 °C"
- molecule: "C/C=C/C1C=Cc2c3c(c4oc(=O)cc(CC)c4c2O1)C(=O)CC(C)O3 (stereo not drawn)"
  melting point: "153 to 155 °C"
- molecule: "CCCc1cc(=O)oc2c3c(c4c(c12)OC(C)(C)C=C4)OC(CN1CCCC1)CC3=O (stereo not drawn)"
  melting point: "148 to 149 °C"
- molecule: "Cc1cc(=O)oc2c3c(c4c(c12)OC(C)(C)C=C4)OC(C)CC3=O (stereo not drawn)"
  melting point: "213 to 215 °C"
- molecule: "CCCc1c(Cl)c(=O)oc2c3c(c4c(c12)OCC(C)=C4)OC(C)CC3=O (stereo not drawn)"
  melting point: "129 to 131 °C"
- molecule: "CCCc1cc(=O)oc2c3c(c4c(c12)OC(C)(C)C=C4)O[C@@H]1CCCC[C@H]1C3=O"
  melting point: "151 to 153 °C"

# context switch: different molecule, same melting point
Request: Recorded melting point for CCCCc1cc(=O)oc2c3c(c4c(c12)OC(c1ccccc1)C=C4)OC(C)CC3=O (stereo not drawn) , please?
Response: 137 to 139 °C

---

measure: melting point

Below, each entry is followed by its recorded melting point result.
- compound: "CC1CC(=O)c2c(c3c(c4c(CN5CCNCC5)cc(=O)oc24)OC(C)(C)C=C3)O1 (centres unmarked)"
  melting point: "156 to 158 °C"
- compound: "CCCc1cc(=O)oc2c3c(c4c(c12)OC(C)C=C4)OCC(C)C3=O (centres unmarked)"
  melting point: "135 to 137 °C"
- compound: "CCCCC1C=Cc2c3c(c4oc(=O)c(F)c(CC)c4c2O1)C(=O)CC(C)O3 (centres unmarked)"
  melting point: "142 to 143 °C"
- compound: "Cc1c(C)c2c3c(c4c(c2oc1=O)C(=O)CC(C)O4)C=CC(C)(C)O3 (centres unmarked)"
  melting point: "142 to 144 °C"
- compound: "CCCc1cc(=O)oc2c3c(c4c(c12)OC(c1ccccc1)C=C4)OC(C)CC3=O (centres unmarked)"
  melting point: "96 to 99 °C"

List melting point for every entry below, keeping the order given.
1. CCc1c(F)c(=O)oc2c3c(c4c(c12)OC(CC)C=C4)OC(C)CC3=O (centres unmarked)
2. CCCc1cc(=O)oc2c3c(c4c(c12)OC(C)(C)C=C4)OC(C)CC3=O (centres unmarked)
3. CCCc1cc(=O)oc2c3c(c4c(c12)OC(c1ccccc1N)C=C4)OC(C)CC3=O (centres unmarked)
4. CCCc1cc(=O)oc2c(-c3cccn3C(C)C)c(O)c3c(c12)OC(C)(C)C=C3
5. CCCc1cc(=O)oc2c3c(c4c(c12)OC(CCC)C=C4)OCC(C)C3=O (centres unmarked)
6. CCCc1cc(=O)oc2c3c(c4c(c12)OC(CCC)C=C4)OC(C)CC3=O (centres unmarked)
7. CCCc1c(F)c(=O)oc2c3c(c4c(c12)OC(CCC)C=C4)OC(C)CC3=O (centres unmarked)
8. CCc1cc(=O)oc2c3c(c4c(c12)OC(CC)C=C4)OC(C)CC3=O (centres unmarked)

Response:
144 to 146 °C
112 to 115 °C
175 to 177 °C
161 to 162 °C
148 to 150 °C
158 to 160 °C
123 to 124 °C
129 to 131 °C

Request: Recorded melting point for CCCc1cc(=O)oc2c3c(c4c(c12)OC(C)(C)C=C4)OCC(C)C3=O (centres unmarked) , please?
Response: 133 to 134 °C

---

measure: melting point

Below, each entry is followed by its recorded melting point result.
- compound: "CCc1cc(=O)oc2c3c(c4c(c12)OCC(C)=C4)OC(C)CC3=O (centres unmarked)"
  melting point: "121 to 123 °C"
- compound: "CCCc1cc(=O)oc2c3c(c4c(c12)OC(C)(C)C=C4)OC(CNS(=O)(=O)c1ccc(OC)cc1)CC3=O (centres unmarked)"
  melting point: "108 to 109 °C"
- compound: "CCc1c(F)c(=O)oc2c3c(c4c(c12)OC(C)C=C4)OC(C)CC3=O (centres unmarked) [Example 83]"
  melting point: "141 to 142 °C"
- compound: "CCCc1cc(=O)oc2c3c(c4c(c12)OC(C)(C)C=C4)OC(c1ccc(C)cc1)CC3=O (centres unmarked) [Example 17]"
  melting point: "174 to 176 °C"

# context switch: different compound, same melting point
Request: Recorded melting point for CCCc1cc(=O)oc2c3c(c4c(c12)OC(C)(C)C=C4)OC(C)(C)CC3=O [Example 12] , please?
Response: 110 to 112 °C

---

Could you please report measured IC50 for the items listed next?
Test system: Mycobacterium tuberculosis H37Rv (ATCC 27294)
Assay: Microplate Alamar Blue Assay (MABA) in BACTEC 12B medium (TAACF screen)
Assay type: cell-based
Details: MABA, H37Rv, read-out: IC50

Below, each entry is followed by its recorded IC50 result.
- compound: "CCCCc1cc(=O)oc2c3c(c4c(c12)OC(CCCC)C=C4)OC(C)CC3=O (centres unmarked)"
  measure: "IC50"
  result: "10.4 mg/L"
- compound: "CCCc1cc(=S)oc2c3c(cc(OS(=O)(=O)c4ccc(C)cc4)c12)OC(C)CC3=O (centres unmarked)"
  measure: "IC50"
  result: "5.48 mg/L"

List IC50 for every entry below, keeping the order given.
1. CC1CC(=O)c2c(c3c(c4c5c(c(=O)oc24)CCC5)OC(C)(C)C=C3)O1 (centres unmarked)
2. CCCc1cc(=O)oc2c3c(c4c(c12)OC(C)(C)C=C4)OC(CN=[N+]=[N-])CC3=O (centres unmarked)

Response:
["23.9 mg/L", "34.5 mg/L"]

Request: Recorded IC50 for CCCc1c(F)c(=O)oc2c3c(c4c(c12)OC(c1ccccc1)C=C4)OC(C)CC3=O (centres unmarked) , please?
Response: 6.42 mg/L

---

measure: melting point

Below, each entry is followed by its recorded melting point result.
- molecule: "CCCc1cc(=O)oc2c3c(c4c(c12)OC(C)C=C4)OC(C)CC3=O (stereo not shown) [Example 80]"
  result: "125 to 127 °C"
- molecule: "C/C=C/C1C=Cc2c3c(c4oc(=O)c(F)c(CC)c4c2O1)C(=O)CC(C)O3 (stereo not shown) [Example 88]"
  result: "158 to 161 °C"
- molecule: "CCCc1cc(=O)oc2c3c(c4c(c12)OC(c1ccccc1)C=C4)OCC(C)C3=O (stereo not shown) [Example 78]"
  result: "187 to 189 °C"
- molecule: "CCCc1cc(=O)oc2c3c(c4c(c12)OC(C)(C)C=C4)O[C@@H]1CCCC[C@@H]1C3=O [Example 19]"
  result: "156 to 159 °C"
- molecule: "C/C=C/C1C=Cc2c3c(c4oc(=O)c(Cl)c(CCC)c4c2O1)C(=O)CC(C)O3 (stereo not shown) [Example 86]"
  result: "142 to 144 °C"
- molecule: "CC1CC(=O)c2c(c3c(c4c(CN5CCN(C)CC5)cc(=O)oc24)OC(C)(C)C=C3)O1 (stereo not shown) [Example 7]"
  result: "238 to 239 °C"
- molecule: "CCCc1cc(=O)oc2c3c(c4c(c12)OC(C)(C)C=C4)OC(=O)CC3"
  result: "132 to 135 °C"
- molecule: "CCCCC1C=Cc2c3c(c4oc(=O)cc(CCC(F)(F)F)c4c2O1)C(=O)CC(C)O3 (stereo not shown) [Example 73]"
  result: "129 to 130 °C"
- molecule: "CC1CC(=O)c2c(c3c(c4c5c(c(=O)oc24)CCCC5)OC(C)(C)C=C3)O1 (stereo not shown) [Example 27]"
  result: "121 to 123 °C"

# context switch: different molecule, same melting point
Request: Recorded melting point for COc1cc(-c2cc(=O)oc3c4c(c5c(c23)OC(C)(C)C=C5)OC(C)CC4=O)cc(OC)c1OC (stereo not shown) [Example 24] , please?
Response: 129 to 131 °C
